Tested on: MLKL (Homo sapiens, UniProt Q8NB16)
Sequence (Q8NB16 whole entry): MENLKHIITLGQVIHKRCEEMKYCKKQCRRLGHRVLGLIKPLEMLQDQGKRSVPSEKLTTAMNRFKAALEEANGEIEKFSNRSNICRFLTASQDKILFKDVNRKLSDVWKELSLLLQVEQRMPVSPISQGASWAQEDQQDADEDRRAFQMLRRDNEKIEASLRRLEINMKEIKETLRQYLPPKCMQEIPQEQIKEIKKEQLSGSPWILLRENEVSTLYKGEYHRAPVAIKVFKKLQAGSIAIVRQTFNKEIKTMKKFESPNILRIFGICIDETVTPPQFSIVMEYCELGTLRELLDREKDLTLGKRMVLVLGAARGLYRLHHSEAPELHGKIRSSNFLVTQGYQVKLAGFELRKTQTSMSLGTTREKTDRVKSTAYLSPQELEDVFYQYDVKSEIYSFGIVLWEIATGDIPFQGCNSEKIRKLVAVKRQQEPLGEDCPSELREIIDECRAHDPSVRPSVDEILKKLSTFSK
Experiment notes: MLKL degradation assay in HepG2 cell line (western blot)
Type: cell-based
Set-up: endogenous in cells; host or cells: HepG2 or HaCaT
Measurement setup: compound 1 μM; cell line not given
We label by threshold. Values of Degradation assay (Degradation %) 1 μM strictly beneath 60% are 1.0. Values of 60% and up are 0.0.

Ask | Decide: Degradation assay (Degradation %) 1 μM of Nc1ncc(-c2cnn(C3CCN(C(=O)CC4CCN(C(=O)CCc5ccc6c(c5)C(=O)N(C5CCC(=O)NC5=O)C6=O)CC4)CC3)c2)nc1C(=O)O[C@@H](C(=O)Nc1ccc(F)cc1)c1ccccc1 (some centres unmarked) [TDH-403] strictly below 60%?
Reply | 0.0

Ask | Decide: Degradation assay (Degradation %) 1 μM of Nc1ncc(-c2cnn(C3CCN(CCCN4CCN(C(=O)c5ccc(C(=O)NC6CCC(=O)NC6=O)cc5)CC4)CC3)c2)nc1C(=O)O[C@@H](C(=O)Nc1ccc(F)cc1)c1ccccc1 (some centres unmarked) [TDH-535] strictly below 60%?
Reply | 1.0

Ask | Decide: Degradation assay (Degradation %) 1 μM of Nc1ncc(-c2cnn(C3CCN(CCCC4CCN(C(=O)CNc5ccc6c(c5)C(=O)N(C5CCC(=O)NC5=O)C6=O)CC4)CC3)c2)nc1C(=O)O[C@@H](C(=O)Nc1ccc(F)cc1)c1ccccc1 (some centres unmarked) [TDH-483] strictly below 60%?
Reply | 0.0

Ask | Decide: Degradation assay (Degradation %) 1 μM of Nc1ncc(-c2cnn(C3CCN(CCOCCOCCNC(=O)COc4cccc5c4C(=O)N(C4CCC(=O)NC4=O)C5=O)CC3)c2)nc1C(=O)O[C@@H](C(=O)Nc1ccc(F)cc1)c1ccccc1 (some centres unmarked) [TDH-135] strictly below 60%?
Reply | 1.0

Ask | Decide: Degradation assay (Degradation %) 1 μM of Nc1ncc(-c2cnn(C3CCN(C(=O)COC4CCN(C(=O)COc5cccc6c5C(=O)N(C5CCC(=O)NC5=O)C6=O)CC4)CC3)c2)nc1C(=O)O[C@@H](C(=O)Nc1ccc(F)cc1)c1ccccc1 (some centres unmarked) [TDH-393] strictly below 60%?
Reply | 0.0

====

Give Degradation assay (Degradation %) 1 μM for every item shown.
Tested on: MLKL (Homo sapiens, UniProt Q8NB16)
Experiment notes: MLKL degradation assay in HepG2 cell line (western blot)
Format: cell-based
Parameters: endogenous in cells; host or cells: HepG2 or HaCaT
Measurement setup: compound 1 μM; cell line not given

What the record says about Nc1ncc(-c2cnn(C3CCN(C(=O)CCC4CCN(C(=O)C5CCN(c6cccc7nnn(C8CCC(=O)NC8=O)c(=O)c67)CC5)CC4)CC3)c2)nc1C(=O)O[C@@H](C(=O)Nc1ccc(F)cc1)c1ccccc1 (some centres unmarked) : Degradation assay (Degradation %) 1 μM is 79.73%

What the record says about Nc1ncc(-c2cnn(C3CCN(C(=O)CCCCCC#Cc4cccc5c4CN(C4CCC(=O)NC4=O)C5=O)CC3)c2)nc1C(=O)O[C@@H](C(=O)Nc1ccc(F)cc1)c1ccccc1 (some centres unmarked) : Degradation assay (Degradation %) 1 μM is 61.54%

What the record says about COc1ccc(C(=O)N2CCC(C(=O)N3CCC(CCN4CCC(n5cc(-c6cnc(N)c(C(=O)O[C@@H](C(=O)Nc7ccc(F)cc7)c7ccccc7)n6)cn5)CC4)CC3)CC2)cc1N1CCC(=O)NC1=O : Degradation assay (Degradation %) 1 μM is 93.97%

What the record says about Nc1ncc(-c2cnn(C3CN(CC4CCN(C(=O)CNc5ccc6c(c5)C(=O)N(C5CCC(=O)NC5=O)C6=O)CC4)C3)c2)nc1C(=O)OC(C(=O)Nc1ccc(F)cc1)c1ccccc1 (centres unmarked) : Degradation assay (Degradation %) 1 μM is 76.86%

What the record says about Nc1ncc(-c2cnn(C3CCN(CC4CN(C(=O)C5CCN(c6cccc7c6C(=O)N(C6CCC(=O)NC6=O)C7=O)CC5)CCO4)CC3)c2)nc1C(=O)OC(C(=O)Nc1ccc(F)cc1)c1ccccc1 (centres unmarked) : Degradation assay (Degradation %) 1 μM is 85.02%

====

System: FADD−/− Jurkat cells
Experiment notes: Necroptosis inhibition assay, TNF-α-induced necroptosis (CellTiter-Glo 2.0)
Assay type: cell-based, human
Measurement setup: compound 10 μM; TNF-α 15 ng/mL, FADD−/− Jurkat cells
Give Necroptosis inhibition assay (Rescue %) 10 μM for every item shown.
Units required after the number.

What the record says about Nc1ncc(-c2cnn(C3CCN(CCCN4CC5CN(C(=O)CCc6ccc7c(c6)C(=O)N(C6CCC(=O)NC6=O)C7=O)CC5C4)CC3)c2)nc1C(=O)O[C@@H](C(=O)Nc1ccc(F)cc1)c1ccccc1 (stereo partly shown) : Necroptosis inhibition assay (Rescue %) 10 μM is 39.78%

What the record says about Cn1c(=O)n(C2CCC(=O)NC2=O)c2ccc(N3CCC(C(=O)N4CCN(CCCN5CCC(n6cc(-c7cnc(N)c(C(=O)O[C@@H](C(=O)Nc8ccc(F)cc8)c8ccccc8)n7)cn6)CC5)CC4)CC3)cc21 (stereo partly shown) : Necroptosis inhibition assay (Rescue %) 10 μM is 17.37%

What the record says about COc1ccc(C(=O)N2CCC(CN3CCN(CCCN4CCC(n5cc(-c6cnc(N)c(C(=O)O[C@@H](C(=O)Nc7ccc(F)cc7)c7ccccc7)n6)cn5)CC4)CC3)CC2)cc1N1CCC(=O)NC1=O : Necroptosis inhibition assay (Rescue %) 10 μM is 43.19%

What the record says about Nc1ncc(-c2cnn(C3CCN(C(=O)CCC4CCN(C(=O)CCc5cccc6c5C(=O)N(C5CCC(=O)NC5=O)C6=O)CC4)CC3)c2)nc1C(=O)O[C@@H](C(=O)Nc1ccc(F)cc1)c1ccccc1 (stereo partly shown) : Necroptosis inhibition assay (Rescue %) 10 μM is 17.64%

What the record says about Cc1cccc(NC(=O)[C@H](OC(=O)c2nc(-c3cnn(C4CCN(CCCN5CCN(C(=O)COc6ccc7c(c6)C(=O)N(C6CCC(=O)NC6=O)C7=O)CC5)CC4)c3)cnc2N)c2ccccc2)c1 (stereo partly shown) : Necroptosis inhibition assay (Rescue %) 10 μM is 58.14%

What the record says about Nc1ncc(-c2cnn(C3CCN(C(=O)CCC4CCN(C(=O)COc5ccc6nnn(C7CCC(=O)NC7=O)c(=O)c6c5)CC4)CC3)c2)nc1C(=O)O[C@@H](C(=O)Nc1ccc(F)cc1)c1ccccc1 (stereo partly shown) : Necroptosis inhibition assay (Rescue %) 10 μM is 23.20%

What the record says about Nc1ncc(-c2cnn(C3CCN(CC4CCN(C(=O)C5CCN(C6=CC(=O)N(C7CCC(=O)NC7=O)C6=O)CC5)CC4)CC3)c2)nc1C(=O)O[C@@H](C(=O)Nc1ccc(F)cc1)c1ccccc1 (stereo partly shown) : Necroptosis inhibition assay (Rescue %) 10 μM is 16.27%

What the record says about Nc1ncc(-c2cnn(C3CCN(C4CC5(CCN(CC6CCN(c7ccc8c(c7)C(=O)N(C7CCC(=O)NC7=O)C8=O)CC6)CC5)C4)CC3)c2)nc1C(=O)O[C@@H](C(=O)Nc1ccc(F)cc1)c1ccccc1 (stereo partly shown) : Necroptosis inhibition assay (Rescue %) 10 μM is 1.07%

What the record says about COc1cccc(NC(=O)[C@H](OC(=O)c2nc(-c3cnn(C4CCN(CCCN5CCN(C(=O)COc6ccc7c(c6)C(=O)N(C6CCC(=O)NC6=O)C7=O)CC5)CC4)c3)cnc2N)c2ccccc2)c1 (stereo partly shown) : Necroptosis inhibition assay (Rescue %) 10 μM is 34.5%

What the record says about Nc1ncc(-c2cnn(C3CCN(CCOC4CCN(C(=O)Cc5cccc(NC6=CC(=O)N(C7CCC(=O)NC7=O)C6=O)c5)CC4)CC3)c2)nc1C(=O)O[C@@H](C(=O)Nc1ccc(F)cc1)c1ccccc1 (stereo partly shown) : Necroptosis inhibition assay (Rescue %) 10 μM is 7.85%

====

Tested on: MLKL (Homo sapiens, UniProt Q8NB16)
Experiment notes: MLKL degradation assay in HepG2 cell line (western blot)
Type: cell-based
Parameters: endogenous in cells; host or cells: HepG2 or HaCaT
Measurement setup: compound 10 μM; cell line not given
Protocol: MLKL degradation ability was evaluated in the following method. […] For protein preparation after incubation, cells were washed with 1×TBST, and 60 μL of RIPA lysis buffer containing Halt™ Protease and Phosphatase Inhibitor Cocktail was dispensed into each well. […] For protein quantification, after dispensing sample and BCA (0-4 mg/ml) in a 96 well plate, 100 μL of BCA was dispensed and reacted in a 37° C. incubator for 30 minutes. […]
Give Degradation assay (Degradation %) 10 μM for every item shown.

What the record says about Nc1ncc(-c2cnn(C3CCN(C4CC5(CCN(CC6CCN(C(=O)c7ccc(C(=O)NC8CCC(=O)NC8=O)cc7)CC6)CC5)C4)CC3)c2)nc1C(=O)O[C@@H](C(=O)Nc1ccc(F)cc1)c1ccccc1 (stereo partly shown) : Degradation assay (Degradation %) 10 μM is 86.14%

What the record says about Nc1ncc(-c2cnn(C3CCN(CCCCCCCCCCNC(=O)C4CN(c5cccc6c5C(=O)N(C5CCC(=O)NC5=O)C6=O)C4)CC3)c2)nc1C(=O)O[C@@H](C(=O)Nc1ccc(F)cc1)c1ccccc1 (stereo partly shown) : Degradation assay (Degradation %) 10 μM is 39.81%

What the record says about Nc1ncc(-c2cnn(C3CCN(CC4CCN(CC5CCN(c6ccc7c(c6)C(=O)N(C6CCC(=O)NC6=O)C7=O)CC5)CC4)CC3)c2)nc1C(=O)O[C@@H](C(=O)Nc1ccc(F)cc1)c1ccccc1 (stereo partly shown) : Degradation assay (Degradation %) 10 μM is 73.71%

What the record says about Nc1ncc(-c2cnn(C3CCN(CCCN4CCN(c5ccc6c(c5)C(=O)N(C5CCC(=O)NC5=O)C6=O)CC4)CC3)c2)nc1C(=O)N[C@@H](C(=O)Nc1ccc(F)cc1)c1ccccc1 (stereo partly shown) : Degradation assay (Degradation %) 10 μM is 14.39%

What the record says about Nc1ncc(-c2cnn(C3CCN(CCOC4CCN(C(=O)COc5ccc6nnn(C7CCC(=O)NC7=O)c(=O)c6c5)CC4)CC3)c2)nc1C(=O)O[C@@H](C(=O)Nc1ccc(F)cc1)c1ccccc1 (stereo partly shown) : Degradation assay (Degradation %) 10 μM is 86.6%

What the record says about Nc1ncc(-c2cnn(C3CCN(CCC4CCN(C(=O)COc5ccc6nnn(C7CCC(=O)NC7=O)c(=O)c6c5)CC4)CC3)c2)nc1C(=O)O[C@@H](C(=O)Nc1ccc(F)cc1)c1ccccc1 (stereo partly shown) : Degradation assay (Degradation %) 10 μM is 49.16%

What the record says about Nc1ncc(-c2cnn(C3CCN(C(=O)c4cn(C5CCN(C(=O)COc6ccc7c(c6)C(=O)N(C6CCC(=O)NC6=O)C7=O)CC5)cn4)CC3)c2)nc1C(=O)O[C@@H](C(=O)Nc1ccc(F)cc1)c1ccccc1 (stereo partly shown) : Degradation assay (Degradation %) 10 μM is 61.42%

What the record says about Nc1ncc(-c2cnn(C3CCN(CCCC4CCN(c5ccc6c(c5)C(=O)N(C5CCC(=O)NC5=O)C6=O)CC4)CC3)c2)nc1C(=O)O[C@@H](C(=O)Nc1ccc(F)cc1)c1ccccc1 (stereo partly shown) : Degradation assay (Degradation %) 10 μM is 63.36%

What the record says about Nc1ncc(-c2cnn(C3CCN(C(=O)COC4CCN(C(=O)C5CCN(c6ccc7c(c6)C(=O)N(C6CCC(=O)NC6=O)C7=O)CC5)CC4)CC3)c2)nc1C(=O)O[C@@H](C(=O)Nc1ccc(F)cc1)c1ccccc1 (stereo partly shown) : Degradation assay (Degradation %) 10 μM is 83.83%

What the record says about Nc1ncc(-c2cnn([C@H]3CCN(CC4CCN(C(=O)CNc5cccc6c5C(=O)N(C5CCC(=O)NC5=O)C6=O)CC4)C3)c2)nc1C(=O)OC(C(=O)Nc1ccc(F)cc1)c1ccccc1 (stereo partly shown) : Degradation assay (Degradation %) 10 μM is 10.1%

Data origin, for the record: patent US20240252488A1
